Data provenance: the supplement of paper PMC11732987

Molecular target: USP38 (UniProt Q8NB14)
Sequence (whole entry): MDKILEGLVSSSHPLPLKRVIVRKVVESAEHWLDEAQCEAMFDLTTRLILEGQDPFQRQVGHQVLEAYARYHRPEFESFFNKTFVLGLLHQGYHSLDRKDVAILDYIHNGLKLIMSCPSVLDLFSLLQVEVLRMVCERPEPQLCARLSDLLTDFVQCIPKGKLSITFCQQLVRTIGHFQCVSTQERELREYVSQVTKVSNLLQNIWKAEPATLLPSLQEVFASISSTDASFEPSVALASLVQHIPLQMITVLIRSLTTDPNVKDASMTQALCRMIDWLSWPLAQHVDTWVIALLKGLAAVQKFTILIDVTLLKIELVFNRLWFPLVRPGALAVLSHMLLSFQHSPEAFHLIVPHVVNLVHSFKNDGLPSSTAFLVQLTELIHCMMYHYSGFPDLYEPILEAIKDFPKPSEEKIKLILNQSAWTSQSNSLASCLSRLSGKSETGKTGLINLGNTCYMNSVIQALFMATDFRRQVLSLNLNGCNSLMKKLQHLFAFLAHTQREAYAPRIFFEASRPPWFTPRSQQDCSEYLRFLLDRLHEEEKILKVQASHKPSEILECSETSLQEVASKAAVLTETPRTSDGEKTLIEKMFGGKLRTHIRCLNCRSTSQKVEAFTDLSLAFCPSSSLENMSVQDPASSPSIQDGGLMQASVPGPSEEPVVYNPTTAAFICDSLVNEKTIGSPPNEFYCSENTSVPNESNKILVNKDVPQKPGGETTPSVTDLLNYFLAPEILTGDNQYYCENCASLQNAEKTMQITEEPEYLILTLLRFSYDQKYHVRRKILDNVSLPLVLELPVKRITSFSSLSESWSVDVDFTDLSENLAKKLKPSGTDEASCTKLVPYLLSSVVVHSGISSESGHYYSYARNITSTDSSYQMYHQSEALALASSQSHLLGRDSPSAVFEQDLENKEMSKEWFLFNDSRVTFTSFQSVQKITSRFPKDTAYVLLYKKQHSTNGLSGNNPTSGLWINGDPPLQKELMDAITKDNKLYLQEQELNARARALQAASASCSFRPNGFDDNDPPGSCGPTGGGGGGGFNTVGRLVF
Assay: log2 ratio of Biotin-Ahx-Ub-VS probe labelling (fragment/DMSO); higher = less target engagement (more negative = stronger competition), active = hit call of the paper (q ≤ 0.05, log2 ratio ≤ -1)
Conditions: compound concentration: 200 uM; treatment time: 3 h
Think of -0.07 as a floor: if log2 ratio of Biotin-Ahx-Ub-VS probe labelling stands on it or above, it is fulfilled; beneath it, not fulfilled.

{"columns": ["molecule", "system under test", "label"],
 "data": [
  ["O=C(CCl)NCC(=O)N1CCCC1", "USP38 (UniProt Q8NB14)", "fulfilled"],
  ["O=C(CCl)N1CCN2C(=O)CCC2C1 (stereo not drawn)", "USP38 (UniProt Q8NB14)", "fulfilled"],
  ["O=C(CCl)NC1CCC(C(F)(F)F)CC1 (stereo not drawn)", "USP38 (UniProt Q8NB14)", "fulfilled"],
  ["O=C(CCl)N1CCCC1c1ccsc1 (stereo not drawn)", "USP38 (UniProt Q8NB14)", "not fulfilled"],
  ["CS(=O)(=O)c1ccc(CNC(=O)CCl)cc1", "USP38 (UniProt Q8NB14)", "fulfilled"]
]}

Query: API: above_or_equal(metric=log2 ratio of Biotin-Ahx-Ub-VS probe labelling, cutoff=-0.07) for item COc1ccc(C2CCCN2C(=O)CCl)c(OC)c1 (stereo not drawn)
Reply: not fulfilled
